- System: Plasmodium berghei
- experiment: Luciferase/luciferin-expressing antifolate-resistant parasites were used to infect a culture of HepG2 cells that were pre-incubated with compounds. Infected hepatocytes emit light due to the luciferase reaction. Assay results are presented as the percent inhibition of light emission compared to control. […]
- Type: functional
- experimentalConditions: sporozoite, read-out: LUCIFERASE INFECTION ASSAY - IC90

>  <compound>
O=C(Nc1nc2c(s1)CCc1ccccc1-2)c1cccc(-n2cnnn2)c1

>  <tgt>
Plasmodium berghei

>  <IC90>
> 10 µM

$$$$
>  <compound>
CN1CCN(c2ccc(-c3cn4c(-c5ccc6c(c5)OCO6)cnc4cn3)cn2)CC1

>  <tgt>
Plasmodium berghei

>  <IC90>
> 7.96 µM

$$$$
>  <compound>
CC(=O)Nc1ccc(Sc2ccnc3cc(Cl)ccc23)cc1

>  <tgt>
Plasmodium berghei

>  <IC90>
3.98 µM

$$$$
>  <compound>
Cc1ccc2c(CC(=O)Nc3sccc3C(N)=O)coc2c1

>  <tgt>
Plasmodium berghei

>  <IC90>
> 10 µM

$$$$
>  <compound>
CCc1nnc(NC(=O)c2csc(Cc3ccccc3)n2)s1

>  <tgt>
Plasmodium berghei

>  <IC90>
> 10 µM

$$$$
>  <compound>
Cc1cc(C)c(-c2csc(NC(=O)C3CC4CCCC(C3)C4=O)n2)c(C)c1 (stereo unspecified)

>  <tgt>
Plasmodium berghei

>  <IC90>
> 10 µM

$$$$

###

- Test system: Plasmodium berghei
- experiment: Luciferase/luciferin-expressing antifolate-resistant parasites were used to infect a culture of HepG2 cells that were pre-incubated with compounds. Infected hepatocytes emit light due to the luciferase reaction. Assay results are presented as the percent inhibition of light emission compared to control. […]
- Type: functional
- experimentalConditions: sporozoite, read-out: LUCIFERASE INFECTION ASSAY - IC50
observable: IC50

>  <chemicalStructure>
COc1cc(-c2nccc3n[nH]c(-c4cccc(OC(F)(F)F)c4)c23)cc(OC)c1OC

>  <tgt>
Plasmodium berghei

>  <observable>
IC50

>  <valueObserved>
> 10 µM

$$$$
>  <chemicalStructure>
Cc1nn2c(=O)cc(C(C)C)[nH]c2c1-c1ccc(F)cc1

>  <tgt>
Plasmodium berghei

>  <observable>
IC50

>  <valueObserved>
> 11.6 µM

$$$$
>  <chemicalStructure>
CC(=O)NCCc1ccc(C(=O)CSc2nccn2-c2ccc(Cl)cc2)s1

>  <tgt>
Plasmodium berghei

>  <observable>
IC50

>  <valueObserved>
> 10 µM

$$$$
>  <chemicalStructure>
NS(=O)(=O)c1ccc(CCNc2cc(-c3ccccc3)c3cc4c(cc3n2)OCCO4)cc1

>  <tgt>
Plasmodium berghei

>  <observable>
IC50

>  <valueObserved>
3.43 µM

$$$$
>  <chemicalStructure>
Cc1c(C2=CCCCC2)c2ccccn2c1C(=O)c1cc2c(C)nn(-c3ccccc3)c2s1

>  <tgt>
Plasmodium berghei

>  <observable>
IC50

>  <valueObserved>
> 10 µM

$$$$

###

Listed compounds paired with reported IC50
- Test system: Plasmodium berghei
- experiment: Luciferase/luciferin-expressing antifolate-resistant parasites were used to infect a culture of HepG2 cells that were pre-incubated with compounds. Infected hepatocytes emit light due to the luciferase reaction. Assay results are presented as the percent inhibition of light emission compared to control. […]
- Format: functional
- experimentalConditions: sporozoite, read-out: LUCIFERASE INFECTION ASSAY - IC50

>  <compound>
COc1cc2c(cc1OC)C(c1ccccc1)N(C(=O)/C=C/c1ccsc1)CC2 (centres undefined)

>  <tgt>
Plasmodium berghei

>  <IC50>
> 10 µM

$$$$
>  <compound>
O=C(C1CCCN(C2=NS(=O)(=O)c3ccccc32)C1)N1CCOCC1 (centres undefined)

>  <tgt>
Plasmodium berghei

>  <IC50>
> 10 µM

$$$$
>  <compound>
CC1CCc2nc3ccccc3c(C(=O)OC(C)C(=O)NCCC3=CCCCC3)c2C1 (centres undefined)

>  <tgt>
Plasmodium berghei

>  <IC50>
> 10 µM

$$$$
>  <compound>
c1ccc(-c2cn3nc(NCc4ccccc4CN4CCOCC4)sc3n2)cc1

>  <tgt>
Plasmodium berghei

>  <IC50>
1.28 µM

$$$$
>  <compound>
O=C(NCCCn1ccc2ccccc21)Nc1ccc(Cl)c(Cl)c1

>  <tgt>
Plasmodium berghei

>  <IC50>
> 10 µM

$$$$
>  <compound>
COc1cc(C(=O)N2CC=C(c3c[nH]c4ccccc34)CC2)ccc1C

>  <tgt>
Plasmodium berghei

>  <IC50>
> 10 µM

$$$$
>  <compound>
CS(=O)(=O)c1ccc(-c2cc(C3(CNc4cccc(Cl)c4)CC3)ccn2)cc1

>  <tgt>
Plasmodium berghei

>  <IC50>
> 10 µM

$$$$
>  <compound>
CSc1nc(=O)nc(-c2ccc(Cl)cc2)[nH]1

>  <tgt>
Plasmodium berghei

>  <IC50>
> 13 µM

$$$$
>  <compound>
CC(C)(C)c1ccccc1NC(=O)Nc1nc(C(N)Cc2ccccc2)cs1 (centres undefined)

>  <tgt>
Plasmodium berghei

>  <IC50>
4.59 µM

$$$$
>  <compound>
CCCCNC(=S)NN=C(c1ccccc1)c1ccccc1

>  <tgt>
Plasmodium berghei

>  <IC50>
> 10 µM

$$$$
>  <compound>
Cn1ccnc1/C(=N\NC(=O)c1sc2ccccc2c1Cl)c1cccc([N+](=O)[O-])c1

>  <tgt>
Plasmodium berghei

>  <IC50>
> 10 µM

$$$$
>  <compound>
COc1cccc(-c2cn3c(-c4ccc(CO)cc4)cnc3cn2)c1F

>  <tgt>
Plasmodium berghei

>  <IC50>
8.82 µM

$$$$
>  <compound>
Cc1ccc(-c2cc(C(=O)N(C)Cc3ccc(C(=O)NC4CC4)cc3)on2)cc1

>  <tgt>
Plasmodium berghei

>  <IC50>
> 10 µM

$$$$
>  <compound>
COc1cccc(-c2ccc3ncc(-c4cccc(C(=O)NCCN(C)C)c4)n3n2)c1

>  <tgt>
Plasmodium berghei

>  <IC50>
1.69 µM

$$$$
>  <compound>
CC(C)(C)C(=O)N1CCC(C(=O)N(Cc2ccccc2)c2nc3c(s2)CCCC3)CC1

>  <tgt>
Plasmodium berghei

>  <IC50>
> 10 µM

$$$$
>  <compound>
Clc1ccc2c(Sc3nnc4ccccn34)ccnc2c1

>  <tgt>
Plasmodium berghei

>  <IC50>
> 10 µM

$$$$
>  <compound>
Oc1cc2c(cc1CN1CCN(Cc3ccc4c(c3)OCO4)CC1)CCC2

>  <tgt>
Plasmodium berghei

>  <IC50>
> 10 µM

$$$$
>  <compound>
CC(C)CCn1c(SCC(=O)N2CCc3ccccc3C2)nc2ccccc2c1=O

>  <tgt>
Plasmodium berghei

>  <IC50>
> 10 µM

$$$$
>  <compound>
O=C(CN1C(=O)c2cccc([N+](=O)[O-])c2C1=O)OCC(=O)N1CCC(Cc2ccccc2)CC1

>  <tgt>
Plasmodium berghei

>  <IC50>
> 10 µM

$$$$
>  <compound>
Cc1ccc(F)c(Nc2ncnc3sccc23)c1

>  <tgt>
Plasmodium berghei

>  <IC50>
> 10 µM

$$$$
>  <compound>
Cc1nn(-c2ccccc2)nc1C(=O)NCc1ccccc1-c1ccc(CN(C)C)cc1

>  <tgt>
Plasmodium berghei

>  <IC50>
3.7 µM

$$$$
>  <compound>
COC(=O)c1c(COC(=O)/C=C/c2ccc(OCC#N)c(OC)c2)nc2ccccc2c1-c1ccccc1

>  <tgt>
Plasmodium berghei

>  <IC50>
> 10 µM

$$$$
>  <compound>
Cc1nc(N2N=C3/C(=C/c4ccc(F)cc4)CCCC3C2c2ccc(F)cc2)sc1C(=O)N(C)C (centres undefined)

>  <tgt>
Plasmodium berghei

>  <IC50>
> 10 µM

$$$$
>  <compound>
O=C1/C(=C/c2ccccc2Cl)CCC/C1=C\c1ccccc1Cl

>  <tgt>
Plasmodium berghei

>  <IC50>
> 9.61 µM

$$$$
>  <compound>
O=C1NC2=C(C(=O)N(CCC3=CCCCC3)C2)C(c2ccc(F)cc2)N1 (centres undefined)

>  <tgt>
Plasmodium berghei

>  <IC50>
> 10 µM

$$$$
>  <compound>
CCOc1ccc(C(=O)CCC(=O)O)cc1

>  <tgt>
Plasmodium berghei

>  <IC50>
> 14.8 µM

$$$$
>  <compound>
COc1cc(NC(=O)c2ccc([N+](=O)[O-])o2)cc(C(F)(F)F)c1

>  <tgt>
Plasmodium berghei

>  <IC50>
> 9.99 µM

$$$$
>  <compound>
C=C(C)CC(NCc1ccco1)c1ccc(OC)cc1 (centres undefined)

>  <tgt>
Plasmodium berghei

>  <IC50>
8.94 µM

$$$$
>  <compound>
COc1ccc(-c2cnc3sc(NCCc4ccc(S(N)(=O)=O)cc4)nn23)cn1

>  <tgt>
Plasmodium berghei

>  <IC50>
> 7.67 µM

$$$$
>  <compound>
Cc1nn(-c2ccc(Cl)cc2)c2sc(C(=O)NC(C)(C)CC(C)(C)C)cc12

>  <tgt>
Plasmodium berghei

>  <IC50>
> 10 µM

$$$$
>  <compound>
OCCCNc1nn2c(-c3cccc(F)c3)cnc2s1

>  <tgt>
Plasmodium berghei

>  <IC50>
> 11.3 µM

$$$$
>  <compound>
CC(C)c1ccc(Nc2ncnc(N)n2)c(Br)c1

>  <tgt>
Plasmodium berghei

>  <IC50>
> 10.7 µM

$$$$
>  <compound>
Cc1ccc(CSc2nc(C)c(Oc3ccc(F)cc3)c(=O)n2C)cc1

>  <tgt>
Plasmodium berghei

>  <IC50>
> 8.91 µM

$$$$
>  <compound>
Cc1ccc(NC(=O)COc2ccc(CCO)cc2-n2nc3ccccc3n2)cc1C

>  <tgt>
Plasmodium berghei

>  <IC50>
> 10 µM

$$$$
